- Tested on: HR repair
- ASSAY SUMMARY: HR reporter assay in SKOV3-DR-GFP cells
- Format: cell-based
- STATED CONDITIONS: Homo sapiens, SK-OV-3, I-SceI-induced DSB, 48 hr, read-out: IC50 for inhibiting HR repair
pIC50: −log10 of the molar value.

{"columns": ["COMPOUND", "pIC50"],
 "data": [
  ["C=CCn1c(SCc2cccc(Cl)c2)nnc1C1CCN(Cc2nc3ccccc3s2)CC1 [DB4]", 5.27]
]}
